Kindly supply the reported MIC values for the records listed here.
Test system: Pseudomonus aeruginosa NCTC-10490
METHOD_SUMMARY: In vitro activity, two-fold agar-plate dilution method, minimal inhibitory concentration (MIC)
Type: cell-based
MEASUREMENT_PARAMETERS: heart infusion agar (HI-agar); overnight culture in Trypticase-soy broth (10^8 viable cells per ml.); incubation at 37° C. for 20 hours; read-out: MIC (minimal inhibitory concentration)
One number for each entry, in µg/mL.

Example cases with answers are listed next.
compound="CC(=O)c1ccc(O)c(C(=O)N[C@@H](C(=O)NC2C(=O)N3C(C(=O)O)=C(CSc4nnnn4C)CSC23)c2ccccc2)c1 (stereo partly drawn)" assay_endpoint=MIC units_of_measure=µg/mL val=0.78
compound="Cn1nnnc1SCC1=C(C(=O)O)N2C(=O)C(NC(=O)[C@H](NC(=O)c3cc(Cl)cc(Cl)c3O)c3ccccc3)C2SC1 (stereo partly drawn)" assay_endpoint=MIC units_of_measure=µg/mL val=0.78

Now, please, on to the next compound.
Specify reported MIC for the compound shown: Cn1nnnc1SCC1=C(C(=O)O)N2C(=O)C(NC(=O)[C@H](NC(=O)c3cc(S(N)(=O)=O)c(Cl)cc3O)c3ccccc3)C2SC1 (stereo partly drawn)
0.78
